Catalogue of polymerase ribozyme fitness (log ratio) readings, one per entry.
B1: TPR 5TU (parent)
chain: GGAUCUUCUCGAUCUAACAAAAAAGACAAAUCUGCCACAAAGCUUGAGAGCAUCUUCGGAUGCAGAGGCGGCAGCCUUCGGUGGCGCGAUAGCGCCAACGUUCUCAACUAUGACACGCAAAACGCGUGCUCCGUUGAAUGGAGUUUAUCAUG

Variants of: B1
ASSAY_METHOD_TEXT: polymerase ribozyme fitness, log enrichment relative to wild type (log ratio); higher = more active; in vitro selection for triplet polymerase activity
Variants at the floor of the assay were thinned out.
Keep the answer to the number alone.

Solved entries:
{"VARIANT_STRING": "U45G U56A C69A C96A C131U G136U", "polymerase ribozyme fitness (log ratio)": -3.1}
{"VARIANT_STRING": "A37C C38U U145C", "polymerase ribozyme fitness (log ratio)": 0.0837}
{"VARIANT_STRING": "C76U U82C A89G", "polymerase ribozyme fitness (log ratio)": -1.3}
{"VARIANT_STRING": "G62C C95U C96A", "polymerase ribozyme fitness (log ratio)": -3.59}
{"VARIANT_STRING": "G59C U101G", "polymerase ribozyme fitness (log ratio)": -0.121}
{"VARIANT_STRING": "U82A U102G", "polymerase ribozyme fitness (log ratio)": -2.54}

# input Let me know recorded polymerase ribozyme fitness (log ratio) for G58C G86C A89U , thanks.
# output -3.91

# input Annotate the variant C69U A119U with its measured polymerase ribozyme fitness (log ratio).
# output -1.57

# input Retrieve polymerase ribozyme fitness (log ratio) measured for C75U G128U and print it.
# output -3.28

# input Please look at this variant and report its polymerase ribozyme fitness (log ratio): G86A C87G
# output -3.97
